test system: translation in rabbit reticulocyte lysate (RRL); test: In vitro translation assay in rabbit reticulocyte lysate (RRL); conditions: luminescence assay, FIG. 2A/2B
MEASURED METRIC: inhibition of translation of luciferase RNA in RRL

O=C(C[C@H]1NCCC[C@@H]1O)Cn1cnc2cc(Br)c(Cl)cc2c1=O (racemic): inhibited
O=C(C[C@H]1NCCC[C@@H]1O)Cn1cnc2ccccc2c1=O: inhibited
O=C(C[C@@H]1NCCC[C@H]1O)Cn1cnc2cc(Br)c(Cl)cc2c1=O (single isomer, unassigned) [2S,3R isomer of HF]: no activity
CC(C)(C)OC(=O)N1CCC[C@H](O)[C@H]1CC(=O)Cn1cnc2cc(Br)c(Cl)cc2c1=O: no activity
